Ref: ChEMBL document CHEMBL1131305

- MEASUREMENT DESCRIPTION: Maximum plasma concentration following oral administration of 26.3 mg/kg in rats
- Assay type: ADME, organism-based
- Set-up: dose 26.3 mg/kg, route oral
- CONDITIONS: rat
QUANTITY: Cmax (ng/mL)

{"columns": ["COMPOUND STRUCTURE", "QUANTITY", "MEASUREMENT"],
 "data": [
  ["CCOC(=O)[C@]1(Cc2ccccc2)CCCN(C(=O)[C@@H](Cc2c[nH]c3ccccc23)NC(=O)C(C)(C)N)C1", "Cmax", 182]
]}

---

- MEASUREMENT DESCRIPTION: Half-life determined at 5.5 mg/kg, iv, in rat
- Type: ADME, organism-based
- Design: dose 5.5 mg/kg
- CONDITIONS: in vivo

{"columns": ["COMPOUND STRUCTURE", "half-life [min]"],
 "data": [
  ["CCOC(=O)[C@]1(Cc2ccccc2)CCCN(C(=O)[C@@H](Cc2c[nH]c3ccccc23)NC(=O)C(C)(C)N)C1", 24]
]}

---

- MEASUREMENT DESCRIPTION: Bioavailability in rats at 26.3 mg/kg oral dose.
- Type: ADME, organism-based
- CONDITIONS: rat, in vivo
QUANTITY: bioavailability (%)

{"columns": ["COMPOUND STRUCTURE", "QUANTITY", "MEASUREMENT"],
 "data": [
  ["CCOC(=O)[C@]1(Cc2ccccc2)CCCN(C(=O)[C@@H](Cc2c[nH]c3ccccc23)NC(=O)C(C)(C)N)C1", "bioavailability", 12.1]
]}

---

- MEASUREMENT DESCRIPTION: Half-life determined at 0.46 mg/kg, iv, in dogs
- Assay type: ADME, organism-based, Canis lupus familiaris
- Parameters: dose 0.46 mg/kg
- CONDITIONS: dog, in vivo

{"columns": ["COMPOUND STRUCTURE", "half-life, h"],
 "data": [
  ["CCOC(=O)[C@]1(Cc2ccccc2)CCCN(C(=O)[C@@H](Cc2c[nH]c3ccccc23)NC(=O)C(C)(C)N)C1", 1.2]
]}

---

- MEASUREMENT DESCRIPTION: Maximum plasma concentration following oral administration of 3.8 mg/kg in Beagle dog
- Assay type: ADME, organism-based, Canis lupus familiaris
- Set-up: dose 3.8 mg/kg, route oral
QUANTITY: Cmax (ng/mL)

{"columns": ["COMPOUND STRUCTURE", "QUANTITY", "UNIT ABBREVIATION", "MEASUREMENT"],
 "data": [
  ["CCOC(=O)[C@]1(Cc2ccccc2)CCCN(C(=O)[C@@H](Cc2c[nH]c3ccccc23)NC(=O)C(C)(C)N)C1", "Cmax", "ng/mL", 560]
]}

---

- MEASUREMENT DESCRIPTION: Clearance rate at 0.46 mg/kg, iv, in dogs
- Assay type: ADME, organism-based, Canis lupus familiaris
- Parameters: dose 0.46 mg/kg
- CONDITIONS: dog, in vivo

{"columns": ["COMPOUND STRUCTURE", "UNIT ABBREVIATION", "clearance"],
 "data": [
  ["CCOC(=O)[C@]1(Cc2ccccc2)CCCN(C(=O)[C@@H](Cc2c[nH]c3ccccc23)NC(=O)C(C)(C)N)C1", "mL/min/kg", 23]
]}
